# TARGET ENTITY: Full length Human HDAC8 (Homo sapiens, UniProt Q9BY41)
# Sequence (Q9BY41 whole entry): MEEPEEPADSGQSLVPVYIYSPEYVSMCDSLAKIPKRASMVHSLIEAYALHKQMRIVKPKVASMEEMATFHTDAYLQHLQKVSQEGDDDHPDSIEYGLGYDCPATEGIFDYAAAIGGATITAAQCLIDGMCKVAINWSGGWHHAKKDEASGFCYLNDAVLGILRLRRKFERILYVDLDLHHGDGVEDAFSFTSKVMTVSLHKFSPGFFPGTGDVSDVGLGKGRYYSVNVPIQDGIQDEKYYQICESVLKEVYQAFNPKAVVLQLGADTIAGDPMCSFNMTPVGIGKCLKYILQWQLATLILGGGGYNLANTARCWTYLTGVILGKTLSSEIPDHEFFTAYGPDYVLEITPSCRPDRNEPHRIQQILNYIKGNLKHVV
ENDPOINT: IC50

// below: answered compounds
- COMPOUND: "O=C(NO)c1cc(F)c2c(c1)CCN(CC1CCC1)C2 [compound 3]"
  TARGET ENTITY: "Full length Human HDAC8 (Homo sapiens, UniProt Q9BY41)"
  IC50: "1 to 10 µM"
- COMPOUND: "O=C(NO)c1ccc(CN2C[C@@H]3CC[C@H]2CO3)c(F)c1 (single isomer, unassigned) [compound 172]"
  TARGET ENTITY: "Full length Human HDAC8 (Homo sapiens, UniProt Q9BY41)"
  IC50: "1 to 10 µM"
- COMPOUND: "CC1(C)C[C@H]2Cc3cc(C(=O)NO)cc(F)c3CN2C1 (single isomer, unassigned) [compound 125]"
  TARGET ENTITY: "Full length Human HDAC8 (Homo sapiens, UniProt Q9BY41)"
  IC50: "1 to 10 µM"

Summary: O=C(NO)c1ccc(CN2CC3(CCCCC3)C2)c(F)c1 [compound 70] , Full length Human HDAC8 (Homo sapiens, UniProt Q9BY41), IC50 = 1 to 10 µM

Summary: Cc1ccn2c1-c1c(F)cc(C(=O)NO)cc1CC2 [compound 155] , Full length Human HDAC8 (Homo sapiens, UniProt Q9BY41), IC50 = 0.1 to 1 µM

Summary: O=C(NO)c1ccc(CN2CC3(CCOC3)C2)c(F)c1 [compound 68] , Full length Human HDAC8 (Homo sapiens, UniProt Q9BY41), IC50 = 1 to 10 µM

Summary: O=C(NO)c1cc(F)c2c(c1)CC1CCCN1C2 (single isomer, unassigned) [compound 120] , Full length Human HDAC8 (Homo sapiens, UniProt Q9BY41), IC50 = 1 to 10 µM

Summary: O=C(NO)c1cc(F)c2c(c1)CN(CC13CC4CC(CC(C4)O1)C3)C2 [compound 13] , Full length Human HDAC8 (Homo sapiens, UniProt Q9BY41), IC50 = 10 to 100 µM
